Tested on: SW480 colon carcinoma cells
Assay: Cell viability assay (CellTiter-Glo)
Type: cell-based, human
Conditions: Homo sapiens, SW480; read-out: percent inhibition at 10 μM
property name: inhibition at 10 µM (%)
Report as a plain number; the unit % is understood.

Take a look at these entries with their results.
Cn1ncc(-c2ccc3cnc(NC(=O)C(C)(C)F)cc3c2)c1CN1CCCCC1 [Compound 784]
39.7
Cc1nnc(-c2ccc3cnc(NC(=O)CN4C5CCC4CC5)cc3c2)s1 [Compound 959]
45
Cn1cc(-c2ccc3cnc(NC(=O)[C@H]4CC[C@H](C(=O)O)CC4)cc3c2)cn1 [Compound 1032]
34.7
CC(C)CN1CCC[C@@H](C(=O)Nc2cc3cc(-c4cnn5c4CN(CCF)CC5)ccc3cn2)C1 [Compound 1002]
37.6
O=C(Nc1cc2cc(-c3cnc4n3CCNC4)ccc2cn1)[C@@H]1CCCNC1 [Compound 988]
18
Cc1nnc(-c2ccc3cnc(NC(=O)CN4CCOC[C@H]4C)cc3c2)s1 [Compound 953]
40.3
Cc1nnc(-c2ccc3cnc(NC(=O)CN4CCN(C)CC4)cc3c2)s1 [Compound 946]
42.6
CN(CC(=O)Nc1cc2cc(-c3cnn(C)c3)ccc2cn1)C1CCC1 [Compound 302]
34.9

Q. Given the entry C[C@H]1COCCN1CC(=O)Nc1cc2cc(-c3cnn(C)c3)ccc2cn1 [Compound 341] , report its measured inhibition at 10 µM.
A. 33.9

Q. Request the reported inhibition at 10 µM associated with Cc1ncc(-c2ccc3cnc(NC(=O)CN4CCN(C)CC4)cc3c2)s1 [Compound 995]
A. 47.6

Q. I'd like to know its inhibition at 10 µM. The molecule in question is CN1CCN(CC(=O)Nc2cc3cc(-c4cnn(C)c4)cc(F)c3cn2)CC1 [Compound 968]
A. 14.5

Q. Tell me the measured inhibition at 10 µM of O=C(Nc1cc2cc(-c3cncs3)ccc2cn1)C1(F)CCCCC1 [Compound 704] , please.
A. 18.1

Q. Suppose we examine the molecule O=C(CN1CCCC1)Nc1cc2cc(-c3cn[nH]c3C(F)(F)F)ccc2cn1 [Compound 287] ; what inhibition at 10 µM value has been reported?
A. 47.8

---

In this section, each of the molecules is paired with its reported EC50.
Biological target: recombinant DYRK1A kinase (Homo sapiens (Human), UniProt Q13627)
Assay: DYRK1A kinase assay (Ser/Thr 18 peptide Z-lyte FRET);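 further: Read-out is the coumarin to fluorescein emission ratio, referenced to unphosphorylated (0%) and phosphorylated (100%) Ser/Thr 18 peptide controls, values from dose-response curves by non-linear regression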
Conditions: 30 μM ATP, 1 h room temperature
# unit: nM | format: bare number

Cn1cc(-c2ccc3cnc(NC(=O)C4CCN(C5CC5)CC4)cc3c2)cn1 [Compound 76]
2.3
Cn1cnnc1-c1ccc2cnc(NC(=O)C3CCN(CCC(F)(F)F)CC3)cc2c1 [Compound 278]
3.2
C[C@@H]1COCCN1CC(=O)Nc1cc2cc(-c3cnn(C)c3)ccc2cn1 [Compound 342]
6.5
Cc1nnc(-c2ccc3cnc(NC(=O)C4(F)CCCCC4)cc3c2)s1 [Compound 883]
8.9

Q. Endpoint output: EC50 of Cn1cc(-c2ccc3cnc(NC(=O)C4CCN(CC(C)(F)F)CC4)cc3c2)cn1 [Compound 83] . Value?
A. 1.2

Q. Requested read-out: EC50. Entry: Cn1cc(-c2cc(F)c3cnc(NC(=O)C4CCN(CCF)CC4)cc3c2)cn1 [Compound 368]
A. 7.9

Q. So what's the measured EC50 for this one? CO[C@H]1CC[C@@H](C(=O)Nc2cc3cc(-c4nnc(C)s4)ccc3cn2)CC1 [Compound 1001]
A. 7.3

Q. Which measured EC50 value corresponds to Cn1cc(-c2ccc3cnc(NC(=O)C4CC5(C4)CN(C(=O)C(F)(F)F)C5)cc3c2)cn1 [Compound 325] ?
A. 2.1
